Species on record: Rattus norvegicus
assayRemarks: DrugMatrix - Regimen: Daily Repeat
Type: toxicity, organism-based, Sprague-Dawley
Design: regimen Daily Repeat, gender Male, age 6-8 weeks
measurementContext: in vivo, po, 0 mg/kg, 72 h, tissue Plasma, route oral GAVAGE, dose level Control, time 3 day, […]
endpoint: URIC ACID (mg/dL)
Report only the number, with the unit mg/dL understood.

>  <compound>
Cc1oncc1C(=O)Nc1ccc(C(F)(F)F)cc1 [LEFLUNOMIDE]

>  <URIC ACID (mg/dL)>
0.93

$$$$
>  <compound>
CN(C)c1nc(N(C)C)nc(N(C)C)n1

>  <URIC ACID (mg/dL)>
1.6

$$$$
>  <compound>
Cc1noc(NS(=O)(=O)c2ccc(N)cc2)c1C

>  <URIC ACID (mg/dL)>
1.3

$$$$
>  <compound>
OC(Cn1cncn1)(Cn1cncn1)c1ccc(F)cc1F

>  <URIC ACID (mg/dL)>
1.37

$$$$
>  <compound>
C[C@H]1O[C@@H](O[C@H]2[C@@H](O)C[C@H](O[C@H]3[C@@H](O)C[C@H](O[C@H]4CC[C@@]5(C)[C@H](CC[C@@H]6[C@@H]5C[C@@H](O)[C@]5(C)[C@@H](C7=CC(=O)OC7)CC[C@]65O)C4)O[C@@H]3C)O[C@@H]2C)C[C@H](O)[C@@H]1O

>  <URIC ACID (mg/dL)>
1.38

$$$$
>  <compound>
CC(C)C(=O)Nc1ccc([N+](=O)[O-])c(C(F)(F)F)c1 [FLUTAMIDE]

>  <URIC ACID (mg/dL)>
0.8

$$$$
>  <compound>
Cc1ccc(-c2cc(C(F)(F)F)nn2-c2ccc(S(N)(=O)=O)cc2)cc1

>  <URIC ACID (mg/dL)>
1.37

$$$$
>  <compound>
CCOC(=O)C1=C(COCCN)NC(C)=C(C(=O)OC)C1c1ccccc1Cl (centres undefined)

>  <URIC ACID (mg/dL)>
1.6

$$$$
>  <compound>
O=c1oc2ccccc2c(O)c1Cc1c(O)c2ccccc2oc1=O

>  <URIC ACID (mg/dL)>
0.7

$$$$
>  <compound>
C[C@@H]1CN(c2c(F)c(N)c3c(=O)c(C(=O)O)cn(C4CC4)c3c2F)C[C@H](C)N1

>  <URIC ACID (mg/dL)>
1.6

$$$$

[Q] Dear colleague, please send me the reported URIC ACID for O=NN(CCCl)C(=O)NC1CCCCC1 when you can.
[A] 1.6

[Q] Please report the measured URIC ACID for CC(C)(Oc1ccc(Cl)cc1)C(=O)O
[A] 1.75

[Q] Supply reported URIC ACID belonging to this compound: O=C(O)CCCc1ccc(N(CCCl)CCCl)cc1
[A] 1.37

[Q] State its URIC ACID: CCC(C)n1ncn(-c2ccc(N3CCN(c4ccc(OCC5COC(Cn6cncn6)(c6ccc(Cl)cc6Cl)O5)cc4)CC3)cc2)c1=O (centres undefined)
[A] 1.37

----------
Species on record: Rattus norvegicus
assayRemarks: DrugMatrix - Regimen: Daily Repeat
Format: toxicity, organism-based, Sprague-Dawley
Parameters: regimen Daily Repeat, gender Male, age 6-8 weeks
measurementContext: in vivo, ip, 2 mg/kg, […], tissue Blood, route intraperitoneal, dose level High, time 28 day, vehicle 100 % SALINE
endpoint: ABSOLUTE LYMPHOCYTE (cells/µL)
Give just the numeric value; cells/µL need not be written.

[Q] Quick one: give measured ABSOLUTE LYMPHOCYTE for LEAD (II) ACETATE
[A] 9520

----------
Organism: Rattus norvegicus
assayRemarks: DrugMatrix - Regimen: Daily Repeat
Assay type: toxicity, organism-based, Sprague-Dawley
Design: regimen Daily Repeat, gender Male, age 6-8 weeks
measurementContext: in vivo, po, 0 mg/kg, 120 h, tissue Blood, route oral GAVAGE, dose level Control, time 5 day, vehicle .5 % CMC
endpoint: MEAN CORPUSCULAR HEMOGLOBIN CONCENTRATION (G/DL)
Just the number in G/DL, nothing appended.

Solved entries (count: 8):
>  <compound>
CCCCc1oc2ccccc2c1C(=O)c1cc(I)c(OCCN(CC)CC)c(I)c1

>  <unitSpec>
G/DL

>  <reportedMeasurement>
39.62

$$$$
>  <compound>
ClC(Br)Br

>  <unitSpec>
G/DL

>  <reportedMeasurement>
36.42

$$$$
>  <compound>
Nc1ccn([C@H]2CC[C@@H](CO)O2)c(=O)n1

>  <unitSpec>
G/DL

>  <reportedMeasurement>
32.95

$$$$
>  <compound>
OCCN(CCO)c1nc(N2CCCCC2)c2nc(N(CCO)CCO)nc(N3CCCCC3)c2n1

>  <unitSpec>
G/DL

>  <reportedMeasurement>
39.97

$$$$
>  <compound>
CN1CCN(CCCN2c3ccccc3Sc3ccc(Cl)cc32)CC1

>  <unitSpec>
G/DL

>  <reportedMeasurement>
39.55

$$$$
>  <compound>
CC1CC(OC(=O)C(O)c2ccccc2)CC(C)(C)C1 (centres undefined) [CYCLANDELATE]

>  <unitSpec>
G/DL

>  <reportedMeasurement>
39.97

$$$$
>  <compound>
CCn1cc(C(=O)O)c(=O)c2cc(F)c(N3CCNCC3)cc21

>  <unitSpec>
G/DL

>  <reportedMeasurement>
40.43

$$$$
>  <compound>
CCOP(=S)(OCC)Oc1nc(Cl)c(Cl)cc1Cl

>  <unitSpec>
G/DL

>  <reportedMeasurement>
31.25

$$$$

Kindly consider the entry below.
[Q] Read off the recorded MEAN CORPUSCULAR HEMOGLOBIN CONCENTRATION for Cc1nc2n(c(=O)c1CCN1CCC(c3noc4cc(F)ccc34)CC1)CCCC2
[A] 39.62

----------
Organism: Rattus norvegicus
assayRemarks: DrugMatrix - Regimen: Daily Repeat
Type: toxicity, organism-based, Sprague-Dawley
Design: regimen Daily Repeat, gender Male, age 6-8 weeks
measurementContext: in vivo, po, 0 mg/kg, 2184 h, tissue Blood, route oral GAVAGE, dose level Control, time 91 day, vehicle .5 % CMC
endpoint: ABSOLUTE EOSINOPHIL (cells/µL)
Number only, in cells/µL; omit the unit.

[Q] Please supply the value of reported ABSOLUTE EOSINOPHIL for the item Cc1ccc2cc3c(ccc4ccccc43)c3c2c1CC3
[A] 70

----------
Attribute: HEMOGLOBIN
Organism: Rattus norvegicus
assayRemarks: DrugMatrix - Regimen: Daily Repeat
Type: toxicity, organism-based, Sprague-Dawley
Set-up: regimen Daily Repeat, gender Male, age 6-8 weeks
measurementContext: in vivo, po, 0 mg/kg, […], tissue Blood, route oral GAVAGE, dose level Control, time 14 day, vehicle .5 % CMC
Could you give me the number in G/DL? Just the number is fine.

Here's what some known entries look like.
>  <smilesRepr>
CCOP(=S)(OCC)Oc1nc(Cl)c(Cl)cc1Cl

>  <reportedMeasurement>
14.58

$$$$
>  <smilesRepr>
ClC(Br)Br

>  <reportedMeasurement>
13.87

$$$$
>  <smilesRepr>
ClC(Cl)Br

>  <reportedMeasurement>
13.87

$$$$

[Q] Please report the measured HEMOGLOBIN for COc1ccc(C(=O)Nc2c(Cl)c[n+]([O-])cc2Cl)c2ccc(C(F)(F)F)nc12
[A] 15.42

----------
Species: Rattus norvegicus
assayRemarks: DrugMatrix - Regimen: Daily Repeat
Type: toxicity, organism-based, Sprague-Dawley
Set-up: regimen Daily Repeat, gender Male, age 6-8 weeks
measurementContext: in vivo, po, 0 mg/kg, 120 h, tissue Plasma, route oral GAVAGE, dose level Control, time 5 day, vehicle .5 % CMC
endpoint: ALKALINE PHOSPHATASE (u/L)
// return numeric value only (unit: u/L, not printed)

>  <molecule>
NC1=NC(=O)C(c2ccccc2)O1 (stereo not drawn)

>  <ALKALINE PHOSPHATASE, u/L>
342.5

$$$$

[Q] Report ALKALINE PHOSPHATASE, nothing else, for this molecule: CCCN1C[C@H](CSC)C[C@@H]2c3cccc4[nH]cc(c34)C[C@H]21 [PERGOLIDE]
[A] 365.67

[Q] Could you please provide reported ALKALINE PHOSPHATASE for CN1CCN(CCCN2c3ccccc3Sc3ccc(Cl)cc32)CC1 ? Thanks!
[A] 405.67

[Q] Look up ALKALINE PHOSPHATASE of CC1CC(OC(=O)C(O)c2ccccc2)CC(C)(C)C1 (stereo not drawn) [CYCLANDELATE] and report it.
[A] 369.5

----------
Species: Rattus norvegicus
assayRemarks: DrugMatrix - Regimen: Daily Repeat
Assay type: toxicity, organism-based, Sprague-Dawley
Set-up: regimen Daily Repeat, gender Male, age 6-8 weeks
measurementContext: in vivo, ip, 2 mg/kg, […], tissue Blood, route intraperitoneal, dose level High, time 28 day, vehicle 100 % SALINE
endpoint: ABSOLUTE EOSINOPHIL (cells/µL)
Entry rule: numbers only, all in cells/µL.

[Q] Provide ABSOLUTE EOSINOPHIL value for the following substance: LEAD (II) ACETATE
[A] 130

Origin of values: ChEMBL document CHEMBL3885881
